- assayed.target: His6-AspH315–758 (human aspartate/asparagine-β-hydroxylase, AspH) (Homo sapiens, UniProt Q12797)
- Construct: N-Terminally His6-tagged human AspH315–758 (His6-AspH315–758) was produced in E. coli BL21 (DE3) cells; made in house; host or cells: E. coli BL21 (DE3), pET-28a(+) vector
- Sequence (Q12797 315-758): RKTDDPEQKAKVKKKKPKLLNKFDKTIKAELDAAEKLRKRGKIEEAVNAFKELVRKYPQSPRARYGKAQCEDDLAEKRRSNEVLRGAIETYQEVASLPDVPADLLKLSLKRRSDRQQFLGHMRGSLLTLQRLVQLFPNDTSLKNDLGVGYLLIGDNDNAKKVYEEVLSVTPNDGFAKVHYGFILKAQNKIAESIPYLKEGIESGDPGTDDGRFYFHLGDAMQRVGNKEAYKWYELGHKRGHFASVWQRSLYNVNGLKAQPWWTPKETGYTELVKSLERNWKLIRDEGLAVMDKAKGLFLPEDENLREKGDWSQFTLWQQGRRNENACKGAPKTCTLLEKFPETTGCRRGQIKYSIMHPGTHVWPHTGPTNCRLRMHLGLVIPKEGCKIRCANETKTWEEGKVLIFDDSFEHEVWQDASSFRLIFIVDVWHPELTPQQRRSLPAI
- assay: SPE-MS AspH inhibition assay (LOPAC screen at fixed 20 μM and IC50 dose-response), hydroxylation of cyclic peptide hFX-CP101–119
- Format: biochemical

| molecule | Plate 5 (% inhibition) [%] |
| --- | --- |
| CN(C)C(=O)[C@H](O)[C@H](Cc1ccccc1)NC(=O)c1cc2cc(Cl)ccc2[nH]1 [CP-91149] | 1.91 |
| CN(CCCOc1ccc(Cc2ccccc2)cc1)CCC(=O)O.Cl [SC-57461A] | -7.77 |
| CC[C@H]1OC(=O)[C@H](C)[C@@H](O[C@H]2C[C@@](C)(OC)[C@@H](O)[C@H](C)O2)[C@H](C)[C@@H](O[C@@H]2O[C@H](C)C[C@H](NC)[C@H]2O)[C@](C)(O)C[C@@H](C)CN(C)[C@H](C)[C@@H](O)[C@]1(C)O [CP-64434] | -2.34 |
